- method: qHTS Assay for Lipid Storage Modulators (AID 1519)
- stated conditions: Drosophila S3 cells, BODIPY lipid droplet/cell ratio, laser cytometry; measured here: cell count channel max response; cells loaded with oleic acid
Results filed as inconclusive are left out.
I'd be grateful if you could share measured max response for these entries.
One number for each entry, in %.

Reference set (10 entries):
Inquiry: Return reported max response; argument: CC(C)Cn1c(=O)n(C)c(=O)c2[nH]cnc21
Reply text: 8.14

Inquiry: Return reported max response; argument: N[C@@H](Cc1c[nH]c2ccccc12)C(=O)O
Reply text: 61.2

Inquiry: Return reported max response; argument: CSC(N)=NCCC[C@H](N)C(=O)O
Reply text: 39.8

Inquiry: Return reported max response; argument: O=c1onc2n1-c1cc(Br)ccc1OC2
Reply text: 64.2

Inquiry: Return reported max response; argument: O=C(O)[C@H]1NCCC[C@H]1C(=O)O
Reply text: -48.8

Inquiry: Return reported max response; argument: O=C(O)CCC(=O)N1CCCC1C(=O)O (stereo unspecified)
Reply text: 29.3

Inquiry: Return reported max response; argument: CNc1cc(NS(=O)(=O)c2ccc(N)cc2)nc(NC)n1
Reply text: -14.7

Inquiry: Return reported max response; argument: NC(=O)CNCCC(c1ccccc1)c1ccccc1
Reply text: -14.5

Inquiry: Return reported max response; argument: NC(Cc1cccc(-c2ccccc2CP(=O)(O)O)c1)C(=O)O (stereo unspecified)
Reply text: 44.3

Inquiry: Return reported max response; argument: Nc1nc2[nH]c(=O)cnc2c(=O)[nH]1
Reply text: 60.5

Hi there! I need max response for each item below, if you can.
1. C=CCN1CCc2cc(O)c(O)cc2C(c2ccccc2)C1 (stereo unspecified)
2. CCCCCC(O)CCCC(=O)O (stereo unspecified)

Reply text:
[-6.45, -25.3]

Hi there! I need max response for each item below, if you can.
1. NCCNS(=O)(=O)c1cccc2c(Cl)cccc12
2. O=[N+]([O-])c1cccc2cn[nH]c12

Reply text:
1: -2.01; 2: 18.6

Hi there! I need max response for each item below, if you can.
1. CC(N)=O
2. CC(C)NCC(O)COc1ccc(CC(N)=O)cc1 (stereo unspecified)
3. C[N+](C)(C)CC=O

Reply text:
[-17.4, -32.1, 50.2]

----------
- method: qHTS for Activators of Parkin Expression: LOPAC Validation Assay (FLuc Reporter) (AID 720573;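 as to activation: 0% = DMSO and 100% = positive control compounds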)
- stated conditions: Cell line, PRKN promoter firefly luciferase reporter; series mostly up to 46.1 µM
Records with an inconclusive call do not appear. Activity calls are given as the source filed them. The call rests on the fitted dose curve; in most records, active means well fitted activation curve with a large enough effect; inconclusive means small, poorly fitted or top-dose-only effect; inactive means no such curve, though single readings can be large or run the other way.
Bench note: report the call from 1 for active, 0 for inactive

Inquiry: Which outcome did this test record for the compound COC(=O)C1=C(C)NC(C)=C([N+](=O)[O-])C1c1ccccc1C(F)(F)F (stereo not given) ?
Reply text: 0

Inquiry: Which outcome did this test record for the compound C=C1C[C@@]23CC[C@H]4[C@@](C)(CCC[C@@]4(C)C(=O)O)[C@@H]2CC[C@]1(O)C3 ?
Reply text: 0

Inquiry: Which outcome did this test record for the compound O=c1cc(-c2ccccc2)[nH]c2nc(Cl)ccc12 ?
Reply text: 0

Inquiry: Which outcome did this test record for the compound O=c1[nH]ccc2c(O)cccc12 ?
Reply text: 0

Inquiry: Which outcome did this test record for the compound CCCCCC[C@@H]([C@@H](C)O)n1cnc2c(N)ncnc21 ?
Reply text: 0

Inquiry: Which outcome did this test record for the compound CC(=O)N[C@@H](Cc1c[nH]c2ccccc12)C(=O)OCc1cc(C(F)(F)F)cc(C(F)(F)F)c1 ?
Reply text: 0

Inquiry: Which outcome did this test record for the compound [Li+] ?
Reply text: 0

Inquiry: Which outcome did this test record for the compound NC(=Nc1ccccc1)NC(=O)c1nc(Cl)c(N)nc1N ?
Reply text: 1

Others:
Inquiry: Which outcome did this test record for the compound O=c1[nH]c2cc(Cl)ccc2c(O)c1-c1ccc(Oc2ccccc2)cc1 ?
Reply text: 0

Inquiry: Which outcome did this test record for the compound CC(=O)O[C@H]1Cc2ccccc2N(C(N)=O)c2ccccc21 ?
Reply text: 0

Inquiry: Which outcome did this test record for the compound CCN1C(=O)C=CC1=O ?
Reply text: 0

----------
- system: Thyrotropin-releasing hormone receptor (Homo sapiens)
- method: qHTS for Small Molecule Agonists and Allosteric Enhancers of Human TRH Receptor: Validation Screen for Agonists (AID 493127);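 also: intracellular calcium rise by fluo-8 fluorescence before TRH EC20 addition; 0% is about no effect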
- stated conditions: TRH receptor agonist cell assay; at 2 µM; stronger effect = higher value
Calls of active or inactive are those of the source.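 Rule for the calls: active = calcium activation more than 3 SD above the typical response in the agonist read; inactive = the rest.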
I'd be grateful if you could share measured activation for these entries.

Reference set (3 entries):
Inquiry: Return reported activation; argument: C[C@@]1(C2CCCC2)Cc2cc(OCC(=O)O)c(Cl)c(Cl)c2C1=O
Reply text: 1.25% (inactive)

Inquiry: Return reported activation; argument: C/C(=C\c1ccc(C(=O)O)cc1)c1ccc2c(c1)C(C)(C)CCC2(C)C
Reply text: -6% (inactive)

Inquiry: Return reported activation; argument: NCCCCN
Reply text: 1.31% (inactive)

Hi there! I need activation for each item below, if you can.
1. N#C/C(=C\c1ccc(O)c(O)c1)C(=O)NCCCNC(=O)/C(C#N)=C/c1ccc(O)c(O)c1
2. Nc1nc2ccc(Cl)cc2c2nc(-c3ccco3)nn12

Reply text:
1: -0.0625% (inactive); 2: 0.25% (inactive)

----------
- method: Validation of Assay for Modulators of Lamin A Splicing (AID 1459);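 also: cells exposed to compound for two days before reading; 0% is about no effect; ratio rise marks activators and ratio drop marks inhibitors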
- stated conditions: Lamin A splicing dual RFP/GFP fluorescence reporter; series mostly up to 9.22 µM
Records with an inconclusive call do not appear. Activity calls are given as the source filed them. Calls follow the shape of the dose curve; as a rule, active = well fitted curve in the direction sought with a large enough effect in the signal ratio; inconclusive = small, poorly fitted or top-dose-only effect, or effect the other way, or a change in a side signal; inactive = no such curve, though single readings can be large or run the other way; the % refers to the signal ratio.
reported endpoint: outcome

Inquiry: Return reported outcome; argument: O=C(O)c1ccccc1Nc1ccccc1
Reply text: inactive

Inquiry: Return reported outcome; argument: O=c1onc2cnc3ccccc3n12
Reply text: inactive

Inquiry: Return reported outcome; argument: O=C1C2C=CC=CC2=NC(=S)N1CCN1CCC(=C(c2ccc(F)cc2)c2ccc(F)cc2)CC1 (stereo not drawn)
Reply text: inactive

----------
- method: qHTS Assay for Identifying Gametocytocidal Compounds (AID 743244);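 also: % is scaled to controls: 0 for no effect and ±100 for the full control effect; actives lower the fluorescent signal which means gametocytes are killed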
- stated conditions: P. falciparum 3D7 stage III-V gametocytes, alamarBlue, 72 h; stronger effect = lower value
Results filed as inconclusive are left out.
reported endpoint: max response (%)
Answers are plain numbers, in %.

Inquiry: Return reported max response; argument: N#CC(C#N)=C(N)/C(C#N)=C/c1ccc(O)cc1
Reply text: 11.4

Inquiry: Return reported max response; argument: CC1CNCCN1S(=O)(=O)c1cccc2cnccc12 (centres undefined)
Reply text: 22.5

Inquiry: Return reported max response; argument: CCCn1c(=O)c2[nH]c(C3CCCC3)nc2n(CCC)c1=O
Reply text: 13.8

Next item in the queue.
Inquiry: Return reported max response; argument: Cn1c(=O)c2[nH]c(C3CCCC3)nc2n(C)c1=O
Reply text: 9.69

----------
- Test system: Zika virus NS2B-NS3 protease
- method: Primary screen GU AMC qHTS for Zika virus inhibitors (AID 1347154);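 also: 0% = no-inhibitor control and -100% = no-enzyme control; nearly all actives have a fitted effect of over 70% in size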
- stated conditions: Zika NS2B-NS3 unlinked protease, AMC fluorogenic substrate; series mostly up to 54.1 µM
Records with an inconclusive call do not appear. The source made the active and inactive calls. Calls come from the whole dose curve; as a rule, active = well fitted inhibition curve with a large enough effect; inconclusive = small, poorly fitted or top-dose-only effect; inactive = flat fitted curve, though single readings scatter.
Bench note: report the call from class 1 = active, class 0 = inactive

Would you please look over these solved cases?
Inquiry: Which outcome did this test record for the molecule NC/C=C\C(=O)O ?
Reply text: class 0

Inquiry: Which outcome did this test record for the molecule CCn1c(=O)[nH]c2cc(Cl)c(Cl)cc21 ?
Reply text: class 0

Inquiry: Which outcome did this test record for the molecule CC(=O)N[C@@H](Cc1c[nH]c2ccccc12)C(=O)OCc1cc(C(F)(F)F)cc(C(F)(F)F)c1 ?
Reply text: class 0

Inquiry: Which outcome did this test record for the molecule NC(N)=NC(N)=Nc1ccccc1 ?
Reply text: class 0

Inquiry: Which outcome did this test record for the molecule NC[C@@H]1O[C@H](c2ccccc2)Cc2c1ccc(O)c2O ?
Reply text: class 0

Continue with the molecule presented below.
Inquiry: Which outcome did this test record for the molecule CN[C@H](CC(=O)O)C(=O)O ?
Reply text: class 0

----------
- method: Natriuretic polypeptide receptor (hNpr1) antagonism - Pilot counterscreen GloSensor control cell line (AID 1347045); also: potency is read from the fitted curve at half-maximal effect
- stated conditions: HEK293 cGMP GloSensor cells, SNP-stimulated luminescence, 20 min; series mostly up to 38.3 µM
Inconclusive results are not listed. Calls of active or inactive are those of the source. Calls come from the whole dose curve.
reported endpoint: Potency

Reference set (5 entries):
Inquiry: Return reported Potency; argument: CC(C)Cn1c(=O)n(C)c(=O)c2[nH]cnc21
Reply text: inactive

Inquiry: Return reported Potency; argument: C=CCNc1ncnc2ccc(Br)cc12
Reply text: inactive

Inquiry: Return reported Potency; argument: O=[N+]([O-])c1cccc2c(Br)[nH]nc12
Reply text: inactive

Inquiry: Return reported Potency; argument: COc1cc2c(CCNC(C)=O)c[nH]c2cc1O
Reply text: inactive

Inquiry: Return reported Potency; argument: CCCCCCC(=O)OC1CC(C)(C)NC(C)(C)C1
Reply text: inactive

Hi there! I need Potency for each item below, if you can.
1. NC(=O)c1cc[n+](CC2=C(C(=O)O)N3C(=O)[C@@H](NC(=O)[C@@H](c4ccccc4)S(=O)(=O)[O-])[C@H]3SC2)cc1
2. Nc1ccc(N2C(=O)c3ccccc3C2=O)c(Cl)c1
3. NC(N)=NC(N)=Nc1cccc(Cl)c1
4. COc1cc(/C=C(\C#N)C(=O)Nc2nnc(C(F)(F)F)s2)ccc1OCc1ccc(C(F)(F)F)cc1C(F)(F)F
5. c1ccc(C(NCCNC(c2ccccc2)c2ccccc2)c2ccccc2)cc1
6. CC(C)C[C@H](NC(=O)[C@H](O)[C@H](N)Cc1ccccc1)C(=O)O

Reply text:
["inactive", "inactive", "inactive", "14.7 µM (active)", "13.1 µM (active)", "inactive"]
